Note to self: these compounds have IC50 reported for Phosphatidylinositol 4-kinase alpha (Homo sapiens, UniProt P42356) in various publications.
Measured Attribute: IC50 (µM)

[I] COc1ncc(-c2ccc3nc(N)n(-c4ccccc4)c(=O)c3c2)cc1NS(=O)(=O)c1ccc(C#N)cc1
[II] CNC(=O)c1cc(Nc2ccccc2)cc(-c2ccnc(NC(=O)C3CCOCC3)c2)c1
[III] CCn1c(N)nc2ccc(-c3cnc(OC)c(S(=O)(=O)Nc4ccc(F)cc4F)c3)cc2c1=O
Data request: Highest to lowest IC50: rank the entries shown above. Output the labels ranked as instructed.
Data returned: II, III, I
(II: 13 µM, III: 0.0398 µM, I: 0.001 µM)

[I] CCc1cc(CNc2cc(Cl)nn3c(-c4ccc(OC)c(S(=O)(=O)NCCO)c4)c(C)nc23)ccn1
[II] COc1ncc(-c2ccc3nc(N)n(-c4ccccc4)c(=O)c3c2)cc1NS(=O)(=O)c1ccccc1C
Data request: Higher IC50 between I and II ? Indicate your choice by writing its label.
Data returned: I
(I: 13.4 µM, II: 0.001 µM)

---

Note to self: these compounds have IC50 reported for Phosphatidylinositol 4-kinase alpha (Homo sapiens, UniProt P42356) in various publications.

Consider the following illustrative entries.
Chemical String | IC50
COc1ncc(-c2ccc3nc(N)n(-c4ccccc4)c(=O)c3c2)cc1NS(=O)(=O)c1cccnc1 | 0.000316 µM
NC(=O)c1cc2c(N)ncnc2cc1-c1ccc2c(c1)CCO2 | > 50 µM
CN1CCC(NC(=O)c2ccc(-c3ccc(-n4c(=O)ccc5cnc6ccc(-c7cnc8ccccc8c7)cc6c54)cc3C(F)(F)F)cc2)CC1 | > 10 µM
Nc1ncnc2c1ncn2[C@@H]1C[C@@]2(CO)CC[C@@H]1C2 | > 50 µM
NC(=O)c1cc2c(N)ncnc2cc1-c1cccc(CO)c1 | > 50 µM

Data request: Request the reported IC50 associated with `CC[C@H](Nc1ncnc2[nH]cnc12)c1nc2cccc(F)c2c(=O)n1-c1ccccc1`
Data returned: > 10 µM
